Here is a set of compounds with reported pKi for Plasmepsin II (Plasmodium falciparum, UniProt P46925), compiled from the literature.
Give bare numbers, as −log10 of the molar value.

COMPOUND	pKi
CCCCNC(=O)CC(O)C(Cc1ccccc1)NC(=O)C(NC(=O)COc1ccc2ccccc2c1)c1ccccc1 (stereo unspecified)	5.24
CC(C)C[C@H](NC(=O)[C@H](C)NC(=O)C[C@H](O)[C@H](COCc1ccc(Br)cc1)NC(=O)[C@H](NC(=O)c1ccccn1)C(C)C)C(N)=O	7.82
Cc1cccc(C)c1OCC(=O)NC[C@](O)(CCc1ccccc1)C(=O)N1CSC(C)(C)[C@H]1C(=O)N[C@H]1c2ccccc2C[C@H]1O	5.13
CCCCNC(=O)C[C@H](O)[C@H](COCc1ccc(-c2ccsc2)cc1)NC(=O)[C@@H](NC(=O)c1ccccn1)C(C)C	7.89

// query Param item = `CC(C)C[C@H](NC(=O)[C@H](C)NC(=O)C[C@H](O)[C@H](COCc1ccc(-c2ccccc2)cc1)NC(=O)[C@@H](NC(=O)c1ccccn1)C(C)C)C(N)=O` ; retrieve measured pKi.
// result 9.05

* * *

Reported pKi against Plasmepsin II (Plasmodium falciparum, UniProt P46925), gathered from multiple publications, appears below.
Give bare numbers, as −log10 of the molar value.

Consider the following illustrative entries.
COMPOUND	MEASUREMENT
CC(C)[C@H](NC(=O)c1ccccn1)C(=O)N[C@@H](Cc1ccccc1)[C@@H](O)CN[C@@H](Cc1ccc(-c2cccc(N)c2)cc1)C(N)=O	6.82
CN1CCC(C(=O)N(CCc2ccc3c(c2)OCO3)C[C@H](O)[C@H](Cc2ccccc2)NC(=O)COc2cccc(Cl)c2)CC1	8.70
CC(C)(C)c1ccc(C(=O)NNC(=O)[C@H](OC/C=C/Br)[C@H](O)[C@@H](O)[C@@H](OC/C=C/Br)C(=O)N[C@H]2c3ccccc3C[C@H]2O)cc1	6.85
CSC[C@H](NC(=O)COc1cccc(Nc2ccccc2)c1)C(=O)N[C@@H](Cc1ccccc1)[C@H](O)C(=O)N1CSC(C)(C)[C@H]1C(=O)N[C@H]1c2ccccc2C[C@H]1O	7.82
CC(C)[C@H](NC(=O)c1ccccn1)C(=O)N[C@@H](COCc1ccc(Br)cc1)[C@@H](O)CC(=O)NCCCc1ccccc1	7.52
CC(C)[C@H](NC(=O)c1ccccn1)C(=O)N[C@@H](Cc1ccccc1)[C@@H](O)CN1C(=O)NC(=O)[C@@H]1Cc1ccc(-c2ccccc2)cc1	6.03
Cc1ccc(/C=C/CO[C@@H](C(=O)N[C@H]2c3ccccc3C[C@H]2O)[C@H](O)[C@@H](O)[C@@H](OC/C=C/c2ccc(C)cc2)C(=O)N[C@H]2c3ccccc3C[C@H]2O)cc1	6.89
O=C(COc1cccc(Cl)c1)N[C@@H](Cc1ccccc1)[C@@H](O)CN(CCc1ccc2c(c1)OCO2)C(=O)CCN1C(=O)c2ccccc2C1=O	6.66

Hey, quick one: what's pKi for each of these?
1. CC(=O)c1ccc(/C=C/CO[C@@H](C(=O)NNC(=O)CCc2ccccc2)[C@H](O)[C@@H](O)[C@@H](OC/C=C/c2ccc(C(C)=O)cc2)C(=O)N[C@H]2c3ccccc3C[C@H]2O)cc1
2. CC(C)C[C@H](NC(=O)[C@H](C)NC(=O)C[C@H](O)[C@H](CCc1ccccc1)NC(=O)[C@@H](NC(=O)c1ccccn1)C(C)C)C(N)=O
3. CSC[C@H](NC(=O)OC1CCCCC1)C(=O)N[C@@H](Cc1ccccc1)[C@H](O)C(=O)N1CSC(C)(C)[C@H]1C(=O)N[C@H]1c2ccccc2C[C@H]1O
4. CCCCNC(=O)C[C@H](O)[C@H](COCc1ccc(-c2ccc3c(c2)OCO3)cc1)NC(=O)[C@@H](NC(=O)c1ccccn1)C(C)C
5. O=C(C[C@H](O)[C@H](COCc1ccc(-c2ccsc2)cc1)NC(=O)c1c(F)cc(F)cc1F)NC1CCCCC1
6. O=C(C[C@H](O)[C@H](COCc1ccc(-c2ccccc2)cc1)NC(=O)c1c(F)cc(F)cc1F)NC1CCCCC1

// result
1. 6.84
2. 7.34
3. 8.30
4. 7.35
5. 6.59
6. 6.67

Quick one: give me pKi for each item below, same order please.
1. CCCCNC(=O)CC(O)C(CC(C)C)NC(=O)C(NC(=O)Cc1cc(OC)ccc1C)C(C)C (stereo not drawn)
2. CC(C)CCNC(=O)[C@H](c1c[nH]c2ccccc12)N(C(=O)c1snc(C(N)=O)c1N)c1ccc2c(c1)OCO2
3. O=C(N[C@H]1c2ccccc2C[C@H]1O)[C@H](OC/C=C/c1ccc2c(c1)OCO2)[C@H](O)[C@@H](O)[C@@H](OC/C=C/c1ccc2c(c1)OCO2)C(=O)N[C@H]1c2ccccc2C[C@H]1O
4. COc1cccc(CCNC(=O)C[C@H](O)[C@H](COCc2ccc(Br)cc2)NC(=O)c2c(F)cc(F)cc2F)c1

// result
1: 6.30; 2: 4.97; 3: 7.85; 4: 6.41

// query Using the record for CCCCNC(=O)CC(O)C(Cc1ccccc1)NC(=O)C(CC(C)C)NC(=O)COc1ccc2ccccc2c1 (stereo not drawn) , report its pKi.
// result 5.25

* * *

# literature pull: Plasmepsin II (Plasmodium falciparum, UniProt P46925) pKi
pKi: −log10 of the molar value.
// 0.0 strictly below 7 in pKi; 1.0 otherwise

Illustrative cases are given below, each with its answer.
COMPOUND	CATEGORY
Cc1ccc(NC(=S)N(Cc2ccc3c(c2)OCO3)Cc2cc3cccc(C)c3[nH]c2=O)cc1	0.0
CSC[C@H](NC(=O)Cc1ccc(C)cc1)C(=O)N[C@@H](Cc1ccccc1)[C@H](O)C(=O)N1CSC(C)(C)[C@H]1C(=O)N[C@H]1c2ccccc2C[C@H]1O	1.0
CCCCNC(=O)C[C@H](O)[C@H](CC(C)C)NC(=O)[C@@H](NC(=O)Cc1ccc2ccccc2c1)C(C)CC (some centres not stated)	1.0
CC(C)C[C@H](NC(=O)[C@H](C)NC(=O)C[C@H](O)[C@H](COCc1ccc(Br)cc1)NC(=O)CC(c1ccccc1)c1ccccc1)C(N)=O	0.0
O=C(CCc1ccccc1)NNC(=O)[C@H](OC/C=C/Br)[C@H](O)[C@@H](O)[C@@H](OC/C=C/Br)C(=O)N[C@H]1c2ccccc2C[C@H]1O	1.0
O=C(N[C@H]1c2ccccc2C[C@H]1O)[C@H](OC/C=C/Br)[C@H](O)[C@@H](O)[C@@H](OC/C=C/Br)c1nnc(CCCc2ccccc2)o1	0.0

// query Item `COc1ccccc1-c1ccc(C[C@H](NC[C@H](O)[C@H](Cc2ccccc2)NC(=O)[C@@H](NC(=O)c2ccccn2)C(C)C)C(N)=O)cc1` with pKi of 7 or above?
// result 0.0

// query Now try `COc1ccc(CCN(C[C@H](O)[C@H](Cc2ccccc2)NC(=O)c2cc(OC)c(OCc3ccccc3)c(OC)c2)C(=O)C2CCN(C)CC2)cc1` .
// result 1.0

// query Then this compound: `CCN(CC)C(=O)c1sc(NC(=O)c2cc(-c3cccc(C)c3)nc3ccccc23)c(C(=O)OC)c1C`
// result 0.0

// query Try this compound too: `Cc1cccc(C)c1OCC(=O)NC[C@@](O)(CCc1ccccc1)C(=O)N1CSC(C)(C)[C@@H]1C(=O)N[C@H]1c2ccccc2C[C@H]1O`
// result 0.0

* * *

pKi: −log10 of the molar value.
pKi for UniProt:P46925 - collated from the literature.
Would you mind labelling by pKi? At or over 7 is Yes, under is No.

COMPOUND	CATEGORY
Cc1cccc(C)c1OCC(=O)NC[C@@](O)(Cc1ccccc1)C(=O)N1CSC(C)(C)[C@H]1C(=O)N[C@H]1c2ccccc2C[C@H]1O	No
CCCCNC(=O)C[C@H](O)[C@H](Cc1ccccc1)NC(=O)CC1CN(Cc2ccc(-c3ccccc3)cc2)CCN1C(=O)CC(CN)c1ccc(Cl)cc1 (stereo partly drawn)	No
O=C(N[C@H]1c2ccccc2C[C@H]1O)[C@H](OC/C=C/C=C/c1ccccc1)[C@H](O)[C@@H](O)[C@@H](OC/C=C/C=C/c1ccccc1)C(=O)N[C@H]1c2ccccc2C[C@H]1O	Yes
CC(C)[C@H](NC(=O)CCc1c[nH]c2ccccc12)C(=O)N[C@@H](Cc1ccccc1)[C@@H](O)CN[C@@H](Cc1ccc(-c2ccccc2)cc1)C(N)=O	Yes

We next turn to a different compound, shown below.
// query Tell me whether pKi is at least 7 here: `Cc1cccc(C)c1OCC(=O)NC[C@](O)(CCc1ccccc1)C(=O)N1CSC(C)(C)[C@@H]1C(=O)N[C@H]1c2ccccc2C[C@H]1O`
// result No

* * *

Collected literature values of Ki measured for Plasmepsin II (Plasmodium falciparum, UniProt P46925).

Previously resolved entries follow.
COMPOUND STRUCTURE STRING	MEASUREMENT
CSC[C@H](NC(=O)Cc1cccc(O)c1)C(=O)N[C@@H](Cc1ccccc1)[C@H](O)C(=O)N1CSC(C)(C)[C@H]1C(=O)N[C@H]1c2ccccc2C[C@H]1O	4 nM
Cc1cccc(C)c1OCC(=O)NC[C@](O)(Cc1ccccc1)C(=O)N1CSC(C)(C)[C@H]1C(=O)N[C@H]1c2ccccc2C[C@H]1O	> 20000 nM
O=C(CCN1CCOCC1)NNC(=O)[C@H](OC/C=C/Br)[C@H](O)[C@@H](O)[C@@H](OC/C=C/Br)C(=O)N[C@H]1c2ccccc2C[C@H]1O	1300 nM
CC(C)C[C@H](NC(=O)[C@H](C)NC(=O)C[C@H](O)[C@H](COCc1ccc(Br)cc1)NC(=O)Cc1cccs1)C(N)=O	348 nM

Respectfully, I request Ki for each entry included below.
1. CC(C)C[C@H](NC(=O)[C@H](C)NC(=O)C[C@H](O)[C@H](COCc1ccc(Br)cc1)NC(=O)[C@@H](NC(=O)c1ccccn1)C(C)C)C(N)=O
2. COc1cccc(CCNC(=O)C[C@H](O)[C@H](COCc2ccc(Br)cc2)NC(=O)[C@@H](NC(=O)c2ccccn2)C(C)C)c1

// result
["2.2 nM", "29 nM"]
